- target_or_test_system: T1, monomeric recombinant cynomologus monkey Notch3 extracellular domain (containing EGF like domains 1-12) … (cynomologus monkey)
- T1 construct: domain: EGF like domains 1-12; also called monomeric rcNotch3
- procedure_summary: SPR BIAcore T100, antibody captured by anti-human IgG Fc, monomeric rcNotch3 analyte, 25 C
readout_label: kon (M⁻¹ s⁻¹)
The reply should be a number in M⁻¹ s⁻¹, with the unit left off.

What kon value was documented for this binder, Hu4F11-80 (antibody, human IgG1, kappa, V domains shown, Humanized, human IgG1 kappa; Hv3-23 S31H T62S heavy + Kv2D-29 N28Q kappa) VH: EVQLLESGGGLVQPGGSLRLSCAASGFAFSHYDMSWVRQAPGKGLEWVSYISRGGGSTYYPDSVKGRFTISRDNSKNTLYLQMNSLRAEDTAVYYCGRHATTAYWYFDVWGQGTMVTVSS VL: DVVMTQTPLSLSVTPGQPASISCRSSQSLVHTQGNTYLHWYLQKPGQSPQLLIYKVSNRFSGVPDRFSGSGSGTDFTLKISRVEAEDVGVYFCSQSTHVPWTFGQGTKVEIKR ?
820000

What kon value was documented for this binder, Hu4F11-70 (antibody, human IgG1, kappa, V domains shown, Humanized, human IgG1 kappa; Hv3-23 A28T S31H T62S heavy + Kv2D-29 N28H kappa) VH: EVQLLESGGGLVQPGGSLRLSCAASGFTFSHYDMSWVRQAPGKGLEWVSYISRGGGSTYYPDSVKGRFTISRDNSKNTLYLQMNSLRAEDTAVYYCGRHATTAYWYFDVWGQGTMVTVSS VL: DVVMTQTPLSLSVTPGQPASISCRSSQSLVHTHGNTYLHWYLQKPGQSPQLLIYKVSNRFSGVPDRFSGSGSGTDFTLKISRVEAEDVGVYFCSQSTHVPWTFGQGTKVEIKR ?
200000

What kon value was documented for this binder, Hu4F11-73 (antibody, human IgG1, kappa, V domains shown, Humanized, human IgG1 kappa; Hv3-23 A28T S31N T62S heavy + Kv2D-29 N28Y kappa) VH: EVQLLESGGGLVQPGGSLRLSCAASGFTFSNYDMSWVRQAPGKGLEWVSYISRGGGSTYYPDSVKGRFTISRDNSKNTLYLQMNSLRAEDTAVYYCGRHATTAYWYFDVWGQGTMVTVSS VL: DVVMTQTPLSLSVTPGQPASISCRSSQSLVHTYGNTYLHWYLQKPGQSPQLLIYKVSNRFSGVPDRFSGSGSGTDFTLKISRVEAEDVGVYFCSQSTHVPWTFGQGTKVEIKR ?
760000

What kon value was documented for this binder, Hu4F11-79 (antibody, human IgG1, kappa, V domains shown, Humanized, human IgG1 kappa; Hv3-23 A28T T62S heavy + Kv2D-29 N28Q kappa) VH: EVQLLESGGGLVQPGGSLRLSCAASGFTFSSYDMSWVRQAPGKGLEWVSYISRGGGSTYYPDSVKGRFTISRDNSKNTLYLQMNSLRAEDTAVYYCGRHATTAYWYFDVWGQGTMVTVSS VL: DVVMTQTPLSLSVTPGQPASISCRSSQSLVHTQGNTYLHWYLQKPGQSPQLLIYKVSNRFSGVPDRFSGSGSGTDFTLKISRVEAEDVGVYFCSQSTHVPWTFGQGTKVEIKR ?
1.3e+06
